Test method notes: chemical genetic growth profiling, strain panel (AID 1159580);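 also: tested at 20 µM; growth read once vehicle control cultures reached saturation at 30 °C; 1 = growth at the plate median or of vehicle wells; lower values mean less growth of the strain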
Experimental conditions: S. cerevisiae deletion strains, growth OD, locus YHR087W, strain rtc3, active compounds read low
The campaign covered roughly 5,500 compounds. About 2,000 (36%) were called active. About 18% were inconclusive and are not listed. The list shows a part of the results.
Readout type: normalized growth

Query: // normalized growth lookup, key: COc1ccc(CCNC(=S)NCCc2ccc(OC)c(OC)c2)cc1OC
Response: 0.979 (inactive)

Query: // normalized growth lookup, key: Cn1nccc1NS(=O)(=O)c1cccc(Cl)c1
Response: 1.01 (inactive)

Query: // normalized growth lookup, key: O=C1CSC(c2ccc(Cl)c(Cl)c2)N1c1ccc(F)cc1 (stereo unspecified)
Response: 0.985 (inactive)

Query: // normalized growth lookup, key: CC(=O)c1ccc(-c2ccc(Cl)c(Cl)c2)o1
Response: 0.816 (active)

Query: // normalized growth lookup, key: Cc1ccc2cc(NC(=O)c3ccco3)ccc2n1
Response: 1.01 (inactive)
